Target: human tryptase
Assay: Inhibition of human tryptase: apparent dissociation constant Kiapp, chromogenic substrate tos-Gly-Pro-Arg-pNA
Details: apparent dissociation constant in presence of substrate; human tryptase from lung tissue, 50 μg of heparin/ml
Excerpt: The documented pathophysiological effects of mast cell tryptase are brought about directly by the enzymic activity of the protease. Accordingly, they are reduced or blocked by inhibitors which inhibit the enzymatic activity of the tryptase. […] This Ki value can be determined by measuring the effect of the inhibitor on the tryptase-induced cleavage of a chromogenic peptide-p-nitroanilide substrate or a fluorogenic peptide-aminomethylcoumarin substrate. […]
Structures can show the parent of a compound that is named as a salt.
Each item that follows carries a reported pKi.
// pKi is dimensionless: -log10 of concentration (M)

# example entries with known answers
NCc1cccc(C(=O)N2CCN(C(=O)c3cccc(C(=O)N4CCN(C(=O)c5cccc(CN)c5)CC4)n3)CC2)c1 ... 5.52
CC(C)(c1ccc(OCC(=O)NCC(=O)NCCCCN)cc1)c1ccc(OCC(=O)NCC(=O)NCCCCN)cc1 [Compound 34, dihydrochloride] ... 5.70

Turning to the following compound.
Q: Recall the recorded pKi for NCC1CCC(C(=O)N2CCN(C(=O)Nc3ccc(Oc4ccc(NC(=O)N5CCN(C(=O)C6CCC(CN)CC6)CC5)cc4)cc3)CC2)CC1 (stereo not drawn) [Compound 17, dihydrochloride] with human tryptase and state it.
Ans: 4.66

----------
biological target: human tryptase; test: Inhibition of human tryptase: apparent dissociation constant Kiapp, chromogenic substrate tos-Gly-Pro-Arg-pNA; settings: apparent dissociation constant in presence of substrate; human tryptase from lung tissue, 50 μg of heparin/ml
Where a name gives a salt, the structure may show the parent alone.
// NB: equality with 100 nM counts as no; only Ki strictly below is yes

Example cases with answers are listed next.
NCC1CCC(C(=O)NC2CCN(C(=O)NC3CCC(CC4CCC(NC(=O)N5CCC(NC(=O)C6CCC(CN)CC6)CC5)CC4)CC3)CC2)CC1 (stereo not drawn) [Compound 23, dihydrochloride] ... no
CC(C)(c1ccc(OC(=O)N2CCN(C(=O)NCc3ccc(CN)cc3)CC2)cc1)c1ccc(OC(=O)N2CCN(C(=O)NCc3ccc(CN)cc3)CC2)cc1 [Compound 36, dihydrochloride] ... yes
NCC1CCC(C(=O)NC2CCN(C(=O)c3cccc(C(=O)N4CCC(NC(=O)C5CCC(CN)CC5)CC4)n3)CC2)CC1 (stereo not drawn) ... no
CC(C)(c1ccc(OCC(=O)NCc2ccc(NC(=N)N)cc2)cc1)c1ccc(OCC(=O)NCc2ccc(NC(=N)N)cc2)cc1 ... no

API: the following record is the query input.
Q: Is Ki strictly under 100 nM for the entry NCc1cccc(C(=O)NC2CCN(C(=O)c3cccc(C(=O)N4CCC(NC(=O)c5cccc(CN)c5)CC4)n3)CC2)c1 ?
Ans: yes
